These measurements were taken from patent US7759331B2.

Biological target: PAK2(h) (Homo sapiens, UniProt Q13177)
Sequence (Q13177 whole entry): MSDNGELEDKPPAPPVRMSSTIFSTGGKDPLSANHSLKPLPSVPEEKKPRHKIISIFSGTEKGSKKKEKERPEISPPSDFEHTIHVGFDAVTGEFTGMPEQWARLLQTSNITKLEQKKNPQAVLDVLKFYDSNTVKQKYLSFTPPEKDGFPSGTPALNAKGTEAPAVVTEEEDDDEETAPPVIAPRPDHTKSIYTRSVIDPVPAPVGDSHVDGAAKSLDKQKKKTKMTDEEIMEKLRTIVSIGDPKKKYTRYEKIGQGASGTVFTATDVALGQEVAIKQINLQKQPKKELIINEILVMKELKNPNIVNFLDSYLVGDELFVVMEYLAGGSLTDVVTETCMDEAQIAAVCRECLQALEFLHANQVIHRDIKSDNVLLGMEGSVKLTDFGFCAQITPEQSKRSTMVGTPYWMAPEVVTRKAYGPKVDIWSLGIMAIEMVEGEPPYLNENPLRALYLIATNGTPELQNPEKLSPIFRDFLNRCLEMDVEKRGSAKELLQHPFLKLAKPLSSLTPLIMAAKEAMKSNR
Assay: Protein kinase selectivity panel
Assay type: biochemical
Conditions: 1.0 μM compound, 10 μM ATP
Method: Protein kinase selectivity assays were performed as described in the scientific literature (Davies, S. P., et al., Biochem. J. 2000, 351, 95-105). Briefly, protein kinases were assayed for their ability to phosphorylate the appropriate peptide/protein substrates in the presence of 1.0 μM compound. Assays were done using 10 μM ATP and were linear with respect to time. […]
Listed here are molecules together with their documented Activity at Protein Kinase Assays (% of control), PAK2(h).
REPORTED_ENDPOINT: Activity at Protein Kinase Assays (% of control), PAK2(h)

SMILES_STRING: CN(C)c1cc2cc(n1)CCCn1cc(c3ccccc31)C1=C(C(=O)NC1=O)c1cn(c3ccccc13)CCC2
RECORDED_RESULT: 103 % of control

SMILES_STRING: O=C1NC(=O)C2=C1c1cn(c3ccccc13)CCCc1cc(nc(N3CCCC3)c1)CCCn1cc2c2ccccc21
RECORDED_RESULT: 100 % of control

SMILES_STRING: O=C1NC(=O)C2=C1c1cn(c3ccccc13)CCCc1ccc(c(N3CCCC3)n1)CCCn1cc2c2ccccc21
RECORDED_RESULT: 102 % of control

SMILES_STRING: CN(C)c1nc2ccc1CCCCn1cc(c3ccccc31)C1=C(C(=O)NC1=O)c1cn(c3ccccc13)CCC2
RECORDED_RESULT: 93 % of control
